System: 1518 (donor line of iPSC-derived cardiomyocytes)
test.name: POD (EC05) for increase in Ca2+ transient decay-to-rise ratio (QT prolongation) vs vehicle; higher = less potent (higher point of departure)
conditions.used: exposure time: 90 min
quantity.kind: POD vs vehicle

1. O=S(=O)(O)CCC(F)(F)C(F)(F)C(F)(F)C(F)(F)C(F)(F)C(F)(F)C(F)(F)C(F)(F)F    > 100 µM
2. O=C(O)C(F)(F)C(F)(F)F    > 100 µM
3. O=C(O)C(F)(F)C(F)(F)C(F)(F)C(F)(F)C(F)(F)C(F)(F)C(F)(F)C(F)(F)C(F)(F)F    > 100 µM
4. COC(=O)C(F)(F)C(F)(F)OC(F)(C(F)(F)F)C(F)(F)OC(F)=C(F)F (centres undefined) [Methyl_perfluoro(3-(1-ethenyloxypropan-2-yloxy)propanoate)]    > 100 µM
5. O=C(O)C=C(C(F)(F)F)C(F)(F)F    > 100 µM
6. O=C(O)C(F)(F)C(F)(F)C(F)(F)OC(F)(F)F    > 100 µM
7. OCCC(F)(F)C(F)(F)C(F)(F)C(F)(F)C(F)(F)C(F)(F)C(F)(F)C(F)(F)F    > 100 µM
8. O=C(O)C(F)(F)C(F)(F)C(F)(F)C(F)(F)C(F)(F)F    > 100 µM
9. O=C(O)C(F)(F)C(F)(F)C(F)(F)OC(F)(C(F)(F)F)C(F)(F)F    > 100 µM
10. O=S(=O)([O-])C(F)(F)C(F)(F)C(F)(F)C(F)(F)F.[K+] [Potassium_perfluorobutanesulfonate]    > 100 µM
11. O=S(=O)(O)C(F)(F)C(F)(F)C(F)(F)C(F)(F)C(F)(F)C(F)(F)F    > 100 µM
12. NS(=O)(=O)C(F)(F)C(F)(F)C(F)(F)C(F)(F)C(F)(F)C(F)(F)F [Perfluorohexanesulfonamide]    > 100 µM
13. OCC(F)(F)OC(F)(F)C(F)(F)OC(F)(F)C(F)(F)OC(F)(F)F    > 100 µM
14. O=C(O)C(F)(F)C(F)(F)C(F)(F)C(F)(F)F    > 100 µM

====

Test system: 20032 (donor line of iPSC-derived cardiomyocytes)
test.name: POD (EC05) for decrease in beat frequency (negative chronotrope) vs vehicle; higher = less potent (higher point of departure)
conditions.used: exposure time: 90 min
quantity.kind: POD vs vehicle

1) O=C(O)C=CC(F)(C(F)(F)F)C(F)(F)F    > 100 µM
2) O=C(O)C(F)(F)C(F)(F)C(F)(F)C(F)(F)C(F)(F)C(F)(F)C(F)(F)C(F)(F)C(F)(F)F    > 100 µM
3) O=C(O)C(F)(F)C(F)(F)C(F)(F)C(F)(F)C(F)(F)C(F)(F)C(F)(F)C(F)(F)Cl    44.8 µM
4) OCC(O)CC(F)(F)C(F)(F)C(F)(F)C(F)(F)C(F)(F)C(F)(F)C(F)(F)C(F)(F)F (configuration not stated)    > 100 µM
5) NC(=O)C(F)(F)C(F)(F)C(F)(F)C(F)F    > 100 µM
6) O=C(O)C(F)(F)C(F)(F)C(F)(F)OC(F)(C(F)(F)F)C(F)(F)F    > 100 µM
7) COC(=O)C(F)(F)C(F)(F)OC(F)(C(F)(F)F)C(F)(F)OC(F)=C(F)F (configuration not stated) [Methyl_perfluoro(3-(1-ethenyloxypropan-2-yloxy)propanoate)]    > 100 µM

====

Tested on: 1535 (donor line of iPSC-derived cardiomyocytes)
test.name: POD (EC05) for decrease in beat frequency (negative chronotrope) vs vehicle; higher = less potent (higher point of departure)
conditions.used: exposure time: 90 min
quantity.kind: POD vs vehicle

1) O=C(O)C(F)(F)C(F)(F)F [Perfluoropropanoic_acid]    > 100 µM
2) O=C(O)C(F)(F)C(F)(F)C(F)(F)C(F)(F)C(F)(F)C(F)(F)C(F)(F)C(F)(F)C(F)(F)C(F)(F)F [Perfluoroundecanoic_acid]    > 100 µM
3) OCC(F)(F)OC(F)(F)C(F)(F)OC(F)(F)C(F)(F)OC(F)(F)F [Fluorinated_triethylene_glycol_monomethyl_ether]    > 100 µM
4) OCC(F)(F)C(F)(F)C(F)(F)C(F)F [1H,1H,5H-Perfluoropentanol]    > 100 µM
5) O=C(O)C(F)(F)OC(F)(F)C(F)(F)OC(F)(F)C(=O)O [Perfluoro-3,6-dioxaoctane-1,8-dioic_acid]    > 100 µM
6) O=P(O)(O)CCC(F)(F)C(F)(F)C(F)(F)C(F)(F)C(F)(F)C(F)(F)C(F)(F)C(F)(F)F [((Perfluorooctyl)ethyl)phosphonic_acid]    > 100 µM
7) O=C(O)C(F)(F)C(F)(F)C(F)(F)C(F)(F)C(=O)O [Octafluoroadipic_acid]    > 100 µM

====

System: 1531 (donor line of iPSC-derived cardiomyocytes)
test.name: POD (EC05) for increase in beat frequency (positive chronotrope) vs vehicle; higher = less potent (higher point of departure)
conditions.used: exposure time: 90 min
In this section we review reported POD vs vehicle values for a set of molecules.
quantity.kind: POD vs vehicle

1. OCC(O)CC(F)(F)C(F)(F)C(F)(F)C(F)(F)C(F)(F)C(F)(F)C(F)(F)C(F)(F)F (configuration not stated)    > 100 µM
2. O=C(O)C(F)(F)OC(F)(F)C(F)(F)OC(F)(F)F    > 100 µM
3. O=C(O)C(F)(F)OC(F)(F)C(F)(F)OC(F)(F)C(F)(F)OC(F)(F)C(F)(F)C(F)(F)C(F)(F)F    > 100 µM
4. OCCC(F)(F)C(F)(F)C(F)(F)C(F)(F)C(F)(F)C(F)(F)C(F)(F)C(F)(F)F    > 100 µM
5. COC(=O)C(F)(F)C(F)(F)OC(F)(C(F)(F)F)C(F)(F)OC(F)=C(F)F (configuration not stated) [Methyl_perfluoro(3-(1-ethenyloxypropan-2-yloxy)propanoate)]    > 100 µM
6. O=C(O)C(F)(F)C(F)(F)OC(F)(F)F    > 100 µM
7. NC(O)(C(F)(F)F)C(F)(F)F    > 100 µM

====

Tested on: 20084 (donor line of iPSC-derived cardiomyocytes)
test.name: POD (EC05) for increase in Ca2+ transient decay-to-rise ratio (QT prolongation) vs vehicle; higher = less potent (higher point of departure)
conditions.used: exposure time: 90 min
In this section we review reported POD vs vehicle values for a set of compounds.
quantity.kind: POD vs vehicle

1. O=C(O)C(F)(F)C(F)(F)C(F)(F)F    > 100 µM
2. O=S(=O)(O)C(F)(F)C(F)(F)C(F)(F)C(F)(F)F    > 100 µM
3. O=C(O)C(F)(F)C(F)(F)C(F)(F)C(F)(F)C(F)(F)C(F)(F)C(F)(F)C(F)(F)C(F)(F)F    > 100 µM
4. N=C(N)C(F)(F)C(F)(F)C(F)(F)C(F)(F)C(F)(F)C(F)(F)C(F)(F)F    0.145 µM
5. OCCC(F)(F)C(F)(F)C(F)(F)C(F)(F)F    > 100 µM
6. O=C(O)CCC(F)(F)C(F)(F)C(F)(F)C(F)(F)C(F)(F)C(F)(F)C(F)(F)F    36.7 µM
7. CC(O)C(F)(F)C(F)(F)F (configuration not stated)    > 100 µM
8. COC(=O)C(F)(F)C(F)(F)OC(F)(C(F)(F)F)C(F)(F)OC(F)=C(F)F (configuration not stated) [Methyl_perfluoro(3-(1-ethenyloxypropan-2-yloxy)propanoate)]    37.5 µM
9. OCC(F)(F)C(F)(F)C(F)(F)C(F)F    5.77 µM
10. O=C(O)C(F)(F)C(F)(F)C(F)(F)C(F)(F)C(F)(F)C(F)(F)C(F)(F)C(F)(F)F    > 100 µM
11. OCC(F)(F)C(F)(F)C(F)(F)C(F)(F)C(F)(F)C(F)F    > 100 µM
12. O=C(O)C(F)(F)C(F)(F)C(F)F    > 100 µM
13. O=S(=O)(O)C(F)(F)C(F)(F)C(F)(F)C(F)(F)C(F)(F)C(F)(F)C(F)(F)C(F)(F)F    > 100 µM
14. NC(=O)C(F)(F)C(F)(F)C(F)(F)C(F)(F)C(N)=O [Octafluoroadipamide]    > 100 µM
15. O=C(O)CCC(F)(F)C(F)(F)C(F)(F)C(F)(F)C(F)(F)F    > 100 µM
16. NC(=O)C(F)(F)C(F)(F)C(F)(F)C(F)F    > 100 µM
17. O=C(O)C(F)(F)C(F)(F)C(F)(F)C(F)(F)C(F)(F)C(F)(F)C(F)(F)C(F)(F)Cl    > 100 µM
18. O=C(O)C(F)(F)C(F)(F)C(F)(F)C(F)(F)C(F)(F)C(F)(F)C(F)(F)F    > 100 µM
19. O=C(O)C(F)(F)C(F)(F)OC(F)(F)F    > 100 µM
20. OCC(F)(F)C(F)(F)C(F)(F)F    > 100 µM
21. CN(CCO)S(=O)(=O)C(F)(F)C(F)(F)C(F)(F)C(F)(F)C(F)(F)C(F)(F)C(F)(F)C(F)(F)F [N-Methyl-N-(2-hydroxyethyl)perfluorooctanesulfonamide]    > 100 µM
22. OCCC(F)(F)C(F)(F)C(F)(F)C(F)(F)C(F)(F)C(F)(F)F    > 100 µM
